Biological target: NRAS G12C (Homo sapiens (Human), UniProt P01111+P62937, G12C)
Sequence (P01111 whole entry G12C): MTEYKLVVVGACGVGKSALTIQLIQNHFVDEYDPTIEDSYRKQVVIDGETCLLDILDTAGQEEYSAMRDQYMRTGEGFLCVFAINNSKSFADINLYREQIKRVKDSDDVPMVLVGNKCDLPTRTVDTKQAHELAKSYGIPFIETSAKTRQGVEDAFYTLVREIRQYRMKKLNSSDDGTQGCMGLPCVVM
Sequence (P62937 whole entry): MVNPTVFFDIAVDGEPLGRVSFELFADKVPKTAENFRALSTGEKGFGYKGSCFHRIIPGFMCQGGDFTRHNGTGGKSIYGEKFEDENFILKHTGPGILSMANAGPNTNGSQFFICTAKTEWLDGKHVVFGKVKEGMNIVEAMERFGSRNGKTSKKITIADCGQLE
Assay: Ras-Raf (BRAF RBD) disruption / FRET / MOA assay, NRAS G12C
Assay type: biochemical
Settings: IC50* NRAS G12C FRET data
Protocol: The purpose of this biochemical assay is to measure the ability of test compounds to facilitate ternary complex formation between a nucleotide-loaded Ras isoform and cyclophilin A; the resulting ternary complex disrupts binding to a BRAF^RBD construct, inhibiting Ras signaling through a RAF effector. Compound is present in plate wells as a 10-point 3-fold dilution series starting at a final concentration of 30 μM. […]
pIC50: −log10 of the molar value.
measurement.name: pIC50

Lookup: Query: pIC50; subject: C=CC(=O)N1CCO[C@@]2(CCN(C(=O)N(C)[C@H](C(=O)N[C@H]3Cc4nc(cs4)-c4ccc5c(c4)c(c(-c4cccnc4[C@H](C)OC)n5CC(F)(F)F)CC(C)(C)COC(=O)[C@@H]4CCCN(N4)C3=O)C(C)C)C2)C1 (atropisomer, axis not shown)
Found: 7.00 to 8.00

Lookup: Query: pIC50; subject: CCn1c(-c2cccnc2[C@H](C)OC)c2c3cc(ccc31)-c1cccc(c1)C[C@H](NC(=O)[C@H](C(C)C)N1CC[C@@]3(CCN(C(=O)C#C[C@@H]4COCCN4C)C3)C1=O)C(=O)N1CCC[C@H](N1)C(=O)OCC(C)(C)C2 (atropisomer, axis not shown)
Found: 7.00 to 8.00

Lookup: Query: pIC50; subject: CCn1c(-c2cccnc2[C@H](C)OC)c2c3cc(ccc31)-c1cc(O)cc(c1)C[C@H](NC(=O)[C@H](C(C)C)N(C)C(=O)[C@H]1CCN(S(=O)(=O)C=C(C)C)C1)C(=O)N1CCC[C@H](N1)C(=O)OCC(C)(C)C2 (atropisomer, axis not shown)
Found: 7.00 to 8.00
